Please provide measured fluorescence lifetime for the entries that follow.
assay: solvent given as SMILES; conditions: in C1CCOC1
Give bare numbers, in ns.

Solved cases (3 shown):
>  <sample_smiles>
C(=C\c1ccccc1/C=C/c1c2ccccc2cc2ccccc12)/c1ccncc1

>  <fluorescence lifetime / ns>
3.38

$$$$
>  <sample_smiles>
CN(C)c1ccc(/C=C/C=C/c2ccc(C#N)cc2)cc1

>  <fluorescence lifetime / ns>
0.35

$$$$
>  <sample_smiles>
c1ccc2c(c1)CCc1c-2cnc2c1-c1ccccc1CC2

>  <fluorescence lifetime / ns>
3.33

$$$$

Each compound below has a recorded value; state its fluorescence lifetime.
1. c1cc2c([nH]c3c4[nH]c5sccc5c4c4nsnc4c23)s1
2. F[B-]1(F)OC(c2ccc(C(F)(F)F)cc2)=Cc2cc(Cl)nc[n+]21
3. Cc1cc(-c2ccc(-c3ccccc3)cc2)nc(-c2ccc(-n3c4ccccc4c4ccccc43)cc2)n1
4. CCCCn1c2ccc(-c3cccs3)cc2c2c1c1c3ccc(-c4cccs4)cc3n(CCCC)c1c1c3ccc(-c4cccs4)cc3n(CCCC)c21
5. C(=C\c1cc2ccccc2c2ccccc12)/c1c2ccccc2cc2ccccc12
6. Cn1nc(-c2ccccc2)c2nc3cc(F)ccc3nc21
7. COC(=O)c1c2ccccc2nc2ccccc12
8. CCN(CC)c1ccc(-c2nc3c(nc2-c2ccc(B(c4c(C)cc(C)cc4C)c4c(C)cc(C)cc4C)cc2)c2ccccc2n3C)cc1

### Response
[16.2, 0.13, 3.36, 4.2, 4.63, 23, 1.1, 2.33]

Field: fluorescence lifetime. Fill in for each record below.
1. CCC1(CC)c2cc(B(c3c(C)cc(C)cc3C)c3c(C)cc(C)cc3C)ccc2-c2c1c1c(c3c2C(CC)(CC)c2cc(N(c4ccccc4)c4ccccc4)ccc2-3)C(CC)(CC)c2cc(B(c3c(C)cc(C)cc3C)c3c(C)cc(C)cc3C)ccc2-1
2. CC(C)(C)c1ccc(C2=C(c3ccc(N4c5ccccc5C(C)(C)c5ccccc54)cc3)S(=O)(=O)c3c2sc(-c2ccc(N4c5ccccc5C(C)(C)c5ccccc54)cc2)c3-c2ccc(C(C)(C)C)cc2)cc1
3. Cc1cc(=O)c2ccc(N)cc2o1
4. Cc1ccc(-c2c3ccc([nH]3)c3nc(c(-c4ccc(C#N)cc4)c4ccc([nH]4)c4ccc([nH]4)c(-c4ccc(C)cc4)c4ccc2o4)C=C3)cc1
5. CN(C)c1ccc2nc3c(cc2c1)c(-c1ccccc1)nn3-c1ccccc1
6. COc1cc2c(cc1-c1ccc(N(C)C)cc1)Cc1c3c(c4c(c1-2)-c1cc(OC)c(-c2ccc(N(C)C)cc2)cc1C4)C(=O)N(CCC(C)C)C3=O

### Response
[18.1, 1.61, 3.22, 5.26, 21, 1.01]
